- System: LoVo
- measurement-description: Anticancer activity against human LoVo cells after 48 hrs by SRB assay
- Type: functional, cell-based
- condition-label: Homo sapiens, LoVo, 48 h; read-out: IC50
measured-metric: IC50 (µM)
Number only, in µM; omit the unit.

Examples from the recorded data:
• COc1cc(NS(=O)(=O)c2ccc(Nc3ccnc4cc(C(F)(F)F)ccc34)cc2)nc(OC)n1 = 50.4
• CC(=O)NS(=O)(=O)c1ccc(Nc2ccnc3cc(C(F)(F)F)ccc23)cc1 = 51.5
• CC(=O)NS(=O)(=O)c1ccc(N/C(S)=N\c2ccnc3cc(C(F)(F)F)ccc23)cc1 = 30

Attention now turns to another entry.
Q: // query IC50 value for entry Cc1noc(NS(=O)(=O)c2ccc(N/C(S)=N\c3ccnc4cc(C(F)(F)F)ccc34)cc2)c1C
A: 67

Every entry's value here was drawn from ChEMBL document CHEMBL2434854.
